Test system: human Factor XI mRNA
Assay: Antisense inhibition in HepG2 cells by microwalk gapmers, 75 nM, lipofectin (Example 3)
Format: cell-based
Details: HepG2 cells, 75 nM, oligonucleotides targeted to nucleobases 738 to 762 of SEQ ID NO: 1
In the oligonucleotide strings, read from the 5' end, every base follows the letter of its sugar. An asterisk marks phosphorothioate; unmarked linkages are phosphodiester. Other units and linkages are bracketed, terminal groups are in braces. A string of capitals states the bases alone. e = 2'-O-(2-methoxyethyl) (MOE); [5mC] = 5-methylcytosine; d = 2'-deoxy (DNA)
assay metric: % inhibition of human Factor XI mRNA levels (%)
Please give a number only; it is taken to be in %.

# substance, uom, reported
rows = [
    ("416900 (antisense eA*eT*e[5mC]*d[5mC]*dG*dT*dG*d[5mC]*dA*dT*d[5mC]*dT*dT*dT*d[5mC]*dT*dT*eG*eG*e[5mC]) [compound 416900]", "%", 90),
    ("416903 (antisense eG*eT*e[5mC]*dA*dT*d[5mC]*d[5mC]*dG*dT*dG*d[5mC]*dA*dT*d[5mC]*dT*dT*dT*e[5mC]*eT*eT) [compound 416903]", "%", 88),
    ("416831 (antisense eA*eT*e[5mC]*e[5mC]*eG*dT*dG*d[5mC]*dA*dT*d[5mC]*dT*dT*dT*d[5mC]*eT*eT*eG*eG*e[5mC]) [compound 416831]", "%", 91),
    ("416979 (antisense eT*e[5mC]*dA*dT*d[5mC]*d[5mC]*dG*dT*dG*d[5mC]*dA*dT*d[5mC]*dT*dT*eT*e[5mC]*eT*eT*eG) [compound 416979]", "%", 63),
    ("416980 (antisense eG*eT*d[5mC]*dA*dT*d[5mC]*d[5mC]*dG*dT*dG*d[5mC]*dA*dT*d[5mC]*dT*eT*eT*e[5mC]*eT*eT) [compound 416980]", "%", 87),
]

Please look up its % inhibition of human Factor XI mRNA levels: 416976 (antisense eT*e[5mC]*d[5mC]*dG*dT*dG*d[5mC]*dA*dT*d[5mC]*dT*dT*dT*d[5mC]*dT*eT*eG*eG*e[5mC]*eA) [compound 416976] 83

Please look up its % inhibition of human Factor XI mRNA levels: 416978 (antisense e[5mC]*eA*dT*d[5mC]*d[5mC]*dG*dT*dG*d[5mC]*dA*dT*d[5mC]*dT*dT*dT*e[5mC]*eT*eT*eG*eG) [compound 416978] 76

Please look up its % inhibition of human Factor XI mRNA levels: 416975 (antisense e[5mC]*e[5mC]*dG*dT*dG*d[5mC]*dA*dT*d[5mC]*dT*dT*dT*d[5mC]*dT*dT*eG*eG*e[5mC]*eA*eT) [compound 416975] 87

###

Tested on: mouse Factor XI mRNA
Assay: Cross-reactive antisense inhibition in primary mouse hepatocytes, 100 nM (Example 9)
Assay type: cell-based
Settings: approx. 24 h, percent inhibition relative to untreated control cells
In the oligonucleotide strings, read from the 5' end, every base follows the letter of its sugar. An asterisk marks phosphorothioate; unmarked linkages are phosphodiester. Other units and linkages are bracketed, terminal groups are in braces. A string of capitals states the bases alone. e = 2'-O-(2-methoxyethyl) (MOE); [5mC] = 5-methylcytosine; d = 2'-deoxy (DNA)
assay metric: Inhibition of mouse Factor XI mRNA levels (column headed SEQ ID No.)
Please give only the number in your answer, with no unit.

Use these answered entries as a reference point.
# substance, reported
records = [
    ("404050 (antisense eT*eG*e[5mC]*eT*eT*dG*dA*dA*dG*dG*dA*dA*dT*dA*dT*e[5mC]*e[5mC]*eA*eG*eA) [compound 404050]", 82),
    ("404090 (antisense eT*eG*eA*eT*e[5mC]*dA*dT*dG*dA*dA*dT*dT*dA*dT*d[5mC]*eA*eT*eT*eT*e[5mC]) [compound 404090]", 42),
]

Next substance, Inhibition of mouse Factor XI mRNA levels (column headed SEQ ID No.) to be filled in.
Please look up its Inhibition of mouse Factor XI mRNA levels (column headed SEQ ID No.): 404054 (antisense eT*eA*eG*eT*eT*d[5mC]*dA*dT*dG*d[5mC]*d[5mC]*d[5mC]*dT*dT*d[5mC]*eA*eT*eG*eT*e[5mC]) [compound 404054] 45

###

Test system: human Factor XI mRNA
Experiment: Dose-dependent inhibition in HepB3 cells, electroporation (Example 7)
Assay type: cell-based
Conditions: 123.457 nM, approx. 16 h
assay metric: percent inhibition of human Factor XI mRNA (%)
Please give a number only; it is taken to be in %.

Use these answered entries as a reference point.
# substance, uom, reported
measured = [
    ("416858 (antisense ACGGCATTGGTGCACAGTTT; 5-10-5 gapmer, wing sugar chemistry not given here, further chemistry not given here) [compound 416858]", "%", 45),
    ("417003 (antisense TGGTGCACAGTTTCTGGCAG; 2-13-5 gapmer, wing sugar chemistry not given here, further chemistry not given here) [compound 417003]", "%", 0),
]

Next substance, percent inhibition of human Factor XI mRNA to be filled in.
Please look up its percent inhibition of human Factor XI mRNA: 416850 (antisense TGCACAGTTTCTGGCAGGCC; 5-10-5 gapmer, wing sugar chemistry not given here, further chemistry not given here) [compound 416850] 38

###

System: Factor XI protein
Test: Cynomolgus monkeys: plasma Factor XI protein ELISA (Example 29)
Format: in vivo
Conditions: escalating doses 5, 10, 25 mg/kg s.c., day 8
In the oligonucleotide strings, read from the 5' end, every base follows the letter of its sugar. An asterisk marks phosphorothioate; unmarked linkages are phosphodiester. Other units and linkages are bracketed, terminal groups are in braces. A string of capitals states the bases alone. e = 2'-O-(2-methoxyethyl) (MOE); [5mC] = 5-methylcytosine; d = 2'-deoxy (DNA)
Met means recorded Inhibition of Factor XI protein relative to the PBS control is 6% or above; Not met means it is below 6%.

Here's what some known entries look like.
# substance, assigned category
measured = [
    ("ISIS 417002: gapmer of Table 8 (antisense eG*eG*dT*dG*d[5mC]*dA*d[5mC]*dA*dG*dT*dT*dT*d[5mC]*dT*dG*eG*e[5mC]*eA*eG*eG)", "Not met"),
    ("ISIS 416864: gapmer of Table 8 (antisense eG*eG*e[5mC]*eA*eG*d[5mC]*dG*dG*dA*d[5mC]*dG*dG*d[5mC]*dA*dT*eT*eG*eG*eT*eG)", "Met"),
    ("ISIS 416850: gapmer of Table 8 (antisense eT*eG*e[5mC]*eA*e[5mC]*dA*dG*dT*dT*dT*d[5mC]*dT*dG*dG*d[5mC]*eA*eG*eG*e[5mC]*e[5mC])", "Met"),
]

Alright, here's another substance for you.
Check if Inhibition of Factor XI protein relative to the PBS control >= 6% (inclusive). Item: ISIS 416838: gapmer of Table 6 (antisense eG*e[5mC]*eA*eA*e[5mC]*d[5mC]*dG*dG*dG*dA*dT*dG*dA*dT*dG*eA*eG*eT*eG*e[5mC]) Not met

###

Test system: human Factor XI mRNA
Assay: Antisense inhibition in HepG2 cells by microwalk gapmers, 8,000 nM, electroporation (Example 14)
Type: cell-based
Conditions: HepG2 cells, 8,000 nM
Method: These microwalk gapmers were tested in vitro. Cultured HepG2 cells at a density of 20,000 cells per well were transfected using electroporation with 8,000 nM antisense oligonucleotide. After a treatment period of approximately 24 hours, RNA was isolated from the cells and Factor XI mRNA levels were measured by quantitative real-time PCR. Factor XI mRNA levels were adjusted according to total RNA content, as measured by RIBOGREEN. […]
In the oligonucleotide strings, read from the 5' end, every base follows the letter of its sugar. An asterisk marks phosphorothioate; unmarked linkages are phosphodiester. Other units and linkages are bracketed, terminal groups are in braces. A string of capitals states the bases alone. e = 2'-O-(2-methoxyethyl) (MOE); [5mC] = 5-methylcytosine; d = 2'-deoxy (DNA)
TRUE means recorded Percent inhibition of human Factor XI mRNA levels is 80% or above; FALSE means it is below 80%.

Here's what some known entries look like.
# substance, assigned category
data = [
    ("445495 (antisense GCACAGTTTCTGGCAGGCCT; 6-8-6 gapmer chemistry, chemistry not fully specified) [compound 445495]", "TRUE"),
    ("416856 (antisense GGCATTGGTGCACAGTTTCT; 5-10-5 gapmer, wing sugar chemistry not given here, further chemistry not given here) [compound 416856]", "TRUE"),
    ("445493 (antisense eA*e[5mC]*eA*eG*eT*eT*dT*d[5mC]*dT*dG*dG*d[5mC]*dA*dG*eG*e[5mC]*e[5mC]*eT*e[5mC]*eG) [compound 445493]", "FALSE"),
    ("416865 (antisense eT*eG*eG*e[5mC]*eA*dG*d[5mC]*dG*dG*dA*d[5mC]*dG*dG*d[5mC]*dA*eT*eT*eG*eG*eT) [compound 416865]", "TRUE"),
]

Alright, here's another substance for you.
Check if Percent inhibition of human Factor XI mRNA levels >= 80% (inclusive). Item: 416855 (antisense e[5mC]*eA*eT*eT*eG*dG*dT*dG*d[5mC]*dA*d[5mC]*dA*dG*dT*dT*eT*e[5mC]*eT*eG*eG) [compound 416855] TRUE
